Reference for the values: ChEMBL document CHEMBL4725333

assay: Cytotoxicity against human RBE cells assessed as reduction in cell viability incubated for 72 hr by CCK8 assay; format: cell-based
RECORDED ENDPOINT: IC50

Problem: Bench note: what IC50 did COCCOCCOCCn1c2ccccc2c2cc(/C=C/c3cccc[n+]3C)ccc21.[I-] show?
Solution: > 40 µM
